Cited source: ChEMBL document CHEMBL1201862

# Test system: Hs-578T
# measurement protocol: NCI tumour cell line growth inhibition, 48 h
The source made the active and inactive calls. Cut-off read from the data, not from the text of the source: active = GI50 up to about 1.1 µM and inactive = higher.
Bench note: report the call from active, inactive

# outcome recorded in this test, key = Clc1ccccc1/C=C/c1nsc(/C=C/c2ccccc2Cl)n1 inactive

Hi team, can someone confirm the assay call for CCOC(=O)NC(C(=O)OCC)(N1CCN(c2cc3c(cc2F)c(=O)c(C(=O)O)cn3CC)CC1)C(F)(F)F (stereo not given) ? inactive

Recorded call for Cc1ccc(S(=O)(=O)NC(=O)NC(Cc2c[nH]c3ccccc23)C(=O)O)cc1 (stereo not given) ? inactive

Field: outcome | Entry: CC(C)c1cc(C(C)C)c(B(c2ccccc2)c2ccccc2)c(C(C)C)c1Br inactive

I would be grateful if you could indicate the recorded call for O=C1C=CC(=O)N1c1ccc2c(c1)Cc1cc(NC(=O)C(F)(F)F)ccc1-2 . inactive

Returns: the outcome recorded for S=c1[nH]c(Cl)cc2nc(Cl)cn12 in this assay. inactive

Which outcome did this test record for the compound COc1ccc(OC)c(NC(=O)c2c(Cl)c(Cl)c(Cl)c(Cl)c2-c2nc3ccccc3[nH]2)c1 ? inactive

Just curious, what result did CCCCCNC(=O)OC1CCn2c1nc1c2C(=O)C(C)=C(N2CC2)C1=O (stereo not given) get here? inactive

Per the assay record, what outcome was assigned to Oc1ccc([I+]c2ccccc2)cc1O ? inactive

Just curious, what result did C=CCN1C[C@H](C)N([C@@H](c2ccc(C(=O)N3CCCCC3)cc2)c2cccc(OC)c2)C[C@H]1C get here? inactive

In this assay, the call recorded for O=C1c2cccnc2-c2nccc3c2c1nc1ccc(Br)cc13 was what? active

Identify the outcome logged in this assay for the compound shown: CC(C)OP(=O)(OC(C)C)C(C(C)C)N(C)/C(N)=N\C1=NC(C(F)(F)F)(C(F)(F)F)N=C(C(C(F)(F)F)C(F)(F)F)O1 (stereo not given) inactive

Assay result, entry CC1OC(O[C@H]2CC[C@]3(C)[C@H]4CC=C5[C@@H]6[C@@H](C)[C@H](C)CC[C@]6(C(=O)O)CC[C@@]5(C(=O)O)[C@]4(C)CC[C@H]3C2(C)C)C(O)C(O)C1O (stereo not given in full) — outcome? inactive

Look up the recorded call for Cc1nnc2n1N=C(c1ccccc1)/C(=C/c1ccc(-c3ccc(Cl)cc3)o1)S2 in this test. inactive

Returns: the outcome recorded for CCCCCCCCCCCCCCC(C(=O)[O-])[n+]1ccccc1 (stereo not given) in this assay. inactive

What outcome does the record of this test show for Cc1ncc2c(=O)c3c(oc2n1)c1ccccc1n3Cc1ccccc1 ? inactive

Outcome? COc1ccc(C2SC(=N)Nc3c2c(C)nn3C(=O)c2ccc(Cl)cc2)cc1OC (stereo not given) inactive

# lookup: test call for COc1cc(COC(=O)N[C@H](C(=O)O)C(C)(C)C)c([N+](=O)[O-])cc1OC inactive

Outcome logged for COC[C@@H](/N=C/c1ccc(OC)cc1)C(C)C in this assay: inactive

Test call, this compound: CCN(CC)CCSc1nc(-c2c[nH]c3nc(C)ccc3c2=O)n[nH]1 inactive

Call for entry CC(C)(CC#N)c1cc(CC(C)(C)c2cc(CC(C)(C)c3cc(C(C)(C)C4(C)OCCO4)no3)no2)no1 : inactive

Recorded test call requested for COc1cc2c(cc1OC)C1C(O)C(OC)C=C3CC[N+](C)(C2)C31 (stereo not given) inactive

// outcome(item) with item = Cc1ccc(-[n+]2cc([O-])on2)cc1 inactive

Kindly provide the recorded test outcome for the following compound: CC(C)(C)c1cc[n+](C[n+]2ccc(C(C)(C)C)cc2)cc1 inactive

Just curious, what result did CCCCN/N=N/c1cn(C2OC(CO)C(O)C2O)c(=O)[nH]c1=O (stereo not given) get here? inactive

Dear all, I need the recorded test outcome for O=c1[nH]c(=O)n(CCOc2ccccc2)cc1Nc1ccccc1 , thank you. inactive

Please share the test call associated with Cc1ccc(-c2cc(N)n(-c3nc4c([nH]3)c(=O)n(C)c(=O)n4C)n2)cc1 . inactive

Any idea what this test logged for O=C(O)C(Cc1c[nH]cn1)N1C(=O)c2ccccc2C1=O (stereo not given) ? inactive

Outcome logged for O=C(O)c1ccc2c(c1)CC1(C2)Cc2ccccc2C1=O (stereo not given) in this assay: inactive

Look up the recorded call for C=CCOC(=O)N1[C@H]2C#C/C=C\C#C[C@]3(O)C(=O)C[C@H](C)[C@]24O[C@]43C2=CC(=O)C=CC21OC (stereo not given in full) in this test. inactive

I'd appreciate the recorded outcome for COCO[C@@H]1C[C@H]2C(=O)Nc3ccccc3C(=O)N2C1 from this test. inactive

Please share the test call associated with CC(=O)Nc1ccc2c3c(cc(O)c2c1)N(C(=O)CCCCCCC(=O)Nc1ccc2c4c(cc(O)c2c1)N(C(=O)OC(C)(C)C)CC4CCl)CC3CCl (stereo not given) . active

Recorded call for COc1ccc(N)c(C(=O)CCNC(C)=O)c1 ? inactive

Tell me the recorded outcome of this test for CCOC(=O)c1ccc(/N=c2\oc3ccc(OC)cc3cc2-c2nc3ccccc3[nH]2)cc1 . inactive

Per the records of this test, what outcome belongs to OCC1OC(n2cnc3c2NC=NC[C@H]3O)CC1O (stereo not given in full) ? inactive

What was the test verdict on O=C(/C=C/c1ccc(F)c(F)c1)OCCc1ccccc1 ? inactive

What was the test verdict on N#CC12C(=O)N3C(=NC(c4ccccc4)NC3c3ccccc3)C1(C#N)C(c1ccccc1)NC1=C2CCCC1 (stereo not given) ? inactive

Outcome? Cc1cc(C)n(CN(Cn2nc(C)cc2C)c2ccccc2)n1 inactive

Given C/C(=N\c1c2ccccc2nc2ccccc12)N(C)C , state the outcome it received in this test. inactive

Field: outcome | Entry: Cc1c2cc[n+]([O-])cc2c(C)c2c1[nH]c1ccccc12 inactive
